ASSAY SYSTEM: human IDO1/HEK293 cells (Homo sapiens)
ASSAY NOTES: HEK Human IDO-1 cell-based IDO inhibition assay (kynurenine production)
STUDY CONDITIONS: HEK293 cells stably expressing human IDO1, 20 hours incubation, absorbance at 490 nm; read-out: HEK Human IDO-1 Bio Activity (IDO IC50)
pIC50: −log10 of the molar value.
Assignment: determine reported pIC50 for the given compounds.

Need pIC50 of CC(NC(=O)c1ccc(Cl)cc1)C1CCC(c2ccc(C(F)(F)F)nc2)CC1 (single isomer, unassigned) [Example 220] , thanks.
> 6.60

Entry to check: C[C@@H](NC(=O)c1ccc(N2CCOCC2)cc1)[C@H]1CC[C@@H](c2ccnc3ccc(F)cc32)CC1
> 6.60

Entry to check: CCC(NC(=O)c1ccc(Cl)cc1)C1CCC(c2cccc(C(F)F)n2)CC1 (single isomer, unassigned) [Example 231e]
> 7.30

Entry to check: Cc1ccc(C(=O)NC(C)C2CCC(Oc3ccnc(C)c3Cl)CC2)cc1 (racemic)
> 6.60

----------
ASSAY SYSTEM: human IDO1/HEK293 cells (Homo sapiens)
Construct: expressed in transfected cells
ASSAY NOTES: HEK Human IDO-1 cell-based IDO inhibition assay (kynurenine production)
STUDY CONDITIONS: HEK293 cells stably expressing human IDO1, 20 hours incubation, absorbance at 490 nm; read-out: HEK Human IDO-1 Bio Activity (IDO IC50)
REPORTED PROPERTY: IC50

Need IC50 of C[C@@H](NS(=O)(=O)c1ccc(Cl)cc1)[C@H]1CC[C@@H](c2ccnc3ccc(F)cc32)CC1 , thanks.
< 2000 nM

Entry to check: O=C(N[C@H]1CC[C@@H](c2ccnc3ccc(F)cc32)CC1)c1ccc(Cl)cc1
< 250 nM

Entry to check: O=C(Nc1ccc(-c2ccccc2)cc1)N1CCN(c2ccnc3ccc(F)cc23)CC1
< 2000 nM

Entry to check: CCC(NC(=O)c1ccc(Cl)cc1)[C@H]1CC[C@@H](Oc2ccnc3ccccc23)CC1 (stereo partly shown)
< 2000 nM

Entry to check: CC(NC(=O)c1ccc(Cl)cc1)C1CCC(c2ccnc(C(F)(F)F)c2)CC1 (single isomer, unassigned) [Example 215]
< 2000 nM

Entry to check: O=C(Nc1ccc(Cl)cc1F)NC1CCN(c2ccnc3ccc(F)cc23)CC1
< 2000 nM

Entry to check: C[C@@H](NC(=O)c1ccc(-c2cnc(C#N)nc2)cc1)[C@H]1CC[C@@H](c2ccnc3ccc(F)cc32)CC1
< 2000 nM

----------
ASSAY SYSTEM: human IDO1/HEK293 cells (Homo sapiens, UniProt P14902)
Sequence (P14902 whole entry): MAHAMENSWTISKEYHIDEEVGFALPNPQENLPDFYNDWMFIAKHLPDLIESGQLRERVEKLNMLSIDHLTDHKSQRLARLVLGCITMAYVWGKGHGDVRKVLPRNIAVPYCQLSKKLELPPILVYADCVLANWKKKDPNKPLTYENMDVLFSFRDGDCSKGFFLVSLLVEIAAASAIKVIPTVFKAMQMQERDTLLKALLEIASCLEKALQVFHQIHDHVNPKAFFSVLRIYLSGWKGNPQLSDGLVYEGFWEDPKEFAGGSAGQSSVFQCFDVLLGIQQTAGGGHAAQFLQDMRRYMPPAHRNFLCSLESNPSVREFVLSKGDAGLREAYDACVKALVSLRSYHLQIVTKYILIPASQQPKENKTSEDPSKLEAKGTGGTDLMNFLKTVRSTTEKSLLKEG
ASSAY NOTES: HEK Human IDO-1 cell-based IDO inhibition assay (kynurenine production)
STUDY CONDITIONS: HEK293 cells stably expressing human IDO1, 20 hours incubation, absorbance at 490 nm; read-out: HEK Human IDO-1 Bio Activity (IDO IC50)
pIC50: −log10 of the molar value.
REPORTED PROPERTY: pIC50

Need pIC50 of Cc1cc(C2CCC(C(C)NC(=O)c3ccc(Cl)cc3)CC2)ccn1 (stereo not shown) [Example 157a] , thanks.
> 6.60

Entry to check: C[C@@H](NC(=O)c1ccc(C#N)cc1)[C@H]1CC[C@@H](c2ccnc3ccc(F)cc32)CC1
> 7.30

Entry to check: CCC(NC(=O)c1ccc(Cl)cc1)C1CCC(c2ccnc3ccc(F)cc23)CC1 (single isomer, unassigned) [Example 164c]
> 7.30

Entry to check: Cc1cccc(C(=O)N[C@H](C)[C@H]2CC[C@@H](c3ccnc4ccc(F)cc43)CC2)c1
> 7.30

----------
Assignment: determine reported IC50 for the given compounds.
ASSAY SYSTEM: human IDO1/HEK293 cells (Homo sapiens, UniProt P14902)
ASSAY NOTES: HEK Human IDO-1 cell-based IDO inhibition assay (kynurenine production)
STUDY CONDITIONS: HEK293 cells stably expressing human IDO1, 20 hours incubation, absorbance at 490 nm; read-out: HEK Human IDO-1 Bio Activity (IDO IC50)

What value of IC50 on human IDO1/HEK293 cells (Homo sapiens, UniProt P14902) does CCC(NC(=O)c1ccc(-n2cccc2)cc1)[C@H]1CC[C@@H](c2ccnc3ccc(C(F)(F)F)cc32)CC1 (some centres unmarked) [Example 255] have?
< 50 nM

Entry to check: C[C@@H](NS(=O)(=O)c1cccc(Cl)c1)[C@H]1CC[C@@H](c2ccnc3ccc(F)cc32)CC1 [Example 44]
< 50 nM

Entry to check: CCC(NC(=O)c1ccc(C#N)cc1)C1CCC(c2ccnc3ccc(F)cc23)CC1 (single isomer, unassigned) [Example 165a]
< 2000 nM

Entry to check: C[C@@H](NC(=O)c1ccc(-n2ccnc2)cc1)[C@H]1CC[C@@H](c2ccnc3ccc(F)cc32)CC1 [Example 196]
< 50 nM

Entry to check: CCC(NC(=O)c1ccc(Cl)cc1)C1CCC(c2cccc(C(F)F)n2)CC1 (single isomer, unassigned) [Example 231d]
< 2000 nM

Entry to check: C[C@@H](NS(=O)(=O)c1ccccc1Cl)[C@H]1CC[C@@H](c2ccnc3ccc(F)cc32)CC1 [Example 42]
< 2000 nM

Entry to check: CC(NC(=O)c1ccc(Cl)cc1)C1CCC(c2ccc(C(F)(F)F)nc2)CC1 (centres unmarked) [Example 216]
< 250 nM

Entry to check: C[C@@H](NC(=O)c1cc(Cl)cc(Cl)c1)[C@H]1CC[C@@H](c2ccnc3ccc(F)cc32)CC1 [Example 66]
< 50 nM

Entry to check: CCC(NC(=O)c1ccc(Cl)cc1)C1CCC(c2ccnc3ccc(F)cc23)CC1 (single isomer, unassigned) [Example 164d]
< 50 nM

Entry to check: CC1(CNC(=O)c2ccc(Cl)cc2)CCN(c2ccnc3ccc(F)cc23)CC1 [Example 226]
< 2000 nM

Entry to check: Cc1cc(C2CCC(C(C)NC(=O)c3ccc(Cl)cc3)CC2)ccn1 (single isomer, unassigned) [Example 157c]
< 2000 nM

Entry to check: CCC(NC(=O)c1ccc(Cl)cc1)C1CCC(c2cccc(C(F)F)n2)CC1 (single isomer, unassigned) [Example 231c]
< 2000 nM

Entry to check: COc1ccc(-c2ccc(C(=O)N[C@H](C)[C@H]3CC[C@@H](c4ccnc5ccc(F)cc54)CC3)nc2)cc1F [Example 178]
< 250 nM

Entry to check: Cc1ccc(C(=O)NCC2CCN(c3ccnc4ccc(F)cc34)CC2)cc1 [Example 86]
< 250 nM

Entry to check: Fc1ccc2nccc([C@H]3CC[C@H](NCc4ccccc4)CC3)c2c1 [Example 130]
< 250 nM

Entry to check: O=C(Nc1ccc(Cl)cc1)N[C@H]1CC[C@H](c2ccnc3ccc(F)cc32)CC1 [Example 119]
< 50 nM

Entry to check: CCC(NC(=O)c1ccc(C#N)cc1)C1CCC(c2ccnc3ccc(F)cc23)CC1 (single isomer, unassigned) [Example 165d]
< 50 nM

Entry to check: COc1nc(-c2ccc(C(=O)N[C@H](C)[C@H]3CC[C@@H](c4ccnc5ccc(F)cc54)CC3)cc2)cs1 [Example 241]
< 50 nM

Entry to check: CCC(NC(=O)c1ccc(Cl)cc1)C1CCC(c2ccnc3ccc(F)cc23)CC1 (single isomer, unassigned) [Example 164a]
< 250 nM

Entry to check: CC(NC(=O)c1ccc(Cl)cc1)C1CCC(c2ccc(C(F)(F)F)nc2)CC1 (single isomer, unassigned) [Example 218]
< 2000 nM

Entry to check: Fc1ccc2nccc([C@H]3CC[C@@H](NCc4ccccc4)CC3)c2c1 [Example 131]
< 250 nM

Entry to check: CC1(CNC(=O)c2ccc(-c3ccccc3)cc2)CCN(c2ccnc(C(F)(F)F)c2)CC1 [Example 228]
< 2000 nM

Entry to check: CC(NC(=O)c1ccc(Cl)cc1)C1CCC(c2ccnc(C(F)(F)F)c2)CC1 (single isomer, unassigned) [Example 213]
< 50 nM

Entry to check: COc1cccc(S(=O)(=O)N[C@H](C)[C@H]2CC[C@@H](c3ccnc4ccc(F)cc43)CC2)c1 [Example 45]
< 2000 nM

Entry to check: C[C@@H](NC(=O)c1ccc(-c2ccc(C(C)(C)O)cc2)cc1)[C@H]1CC[C@@H](c2ccnc3ccc(F)cc32)CC1 [Example 242]
< 250 nM

Entry to check: CCC(NC(=O)c1ccc(Cl)cc1)C1CCC(c2cccc(C(F)F)n2)CC1 (mixture of isomers) [Example 231a]
< 250 nM

Entry to check: CC(C(=O)N[C@H]1CC[C@@H](c2ccnc3ccc(F)cc32)CC1)c1ccc(Cl)cc1 (some centres unmarked) [Example 148]
< 2000 nM

Entry to check: Cc1c(C2CCC(C(C)NC(=O)c3ccc(-c4ccccc4)cc3)CC2)ccnc1F (single isomer, unassigned) [Example 222]
< 2000 nM

Entry to check: C[C@@H](NC(=O)c1cccc(Cl)c1)[C@H]1CC[C@@H](c2ccnc3ccc(F)cc32)CC1 [Example 57]
< 50 nM
